target: PERK (Homo sapiens, UniProt Q9NZJ5); assay: Cell-based PERK inhibition assay (TR-FRET, phosphorylation of GFP-eIF2 alpha in HEK293 cells, tunicamycin); details: HEK293 (LanthaScreen eIF2α GripTite) cells, compounds 60 min, tunicamycin 2 microg/ml 120 min; read-out: P-eIF2alpha_Lantha_cell pIC50 (converted)
Sequence (Q9NZJ5 30-1116): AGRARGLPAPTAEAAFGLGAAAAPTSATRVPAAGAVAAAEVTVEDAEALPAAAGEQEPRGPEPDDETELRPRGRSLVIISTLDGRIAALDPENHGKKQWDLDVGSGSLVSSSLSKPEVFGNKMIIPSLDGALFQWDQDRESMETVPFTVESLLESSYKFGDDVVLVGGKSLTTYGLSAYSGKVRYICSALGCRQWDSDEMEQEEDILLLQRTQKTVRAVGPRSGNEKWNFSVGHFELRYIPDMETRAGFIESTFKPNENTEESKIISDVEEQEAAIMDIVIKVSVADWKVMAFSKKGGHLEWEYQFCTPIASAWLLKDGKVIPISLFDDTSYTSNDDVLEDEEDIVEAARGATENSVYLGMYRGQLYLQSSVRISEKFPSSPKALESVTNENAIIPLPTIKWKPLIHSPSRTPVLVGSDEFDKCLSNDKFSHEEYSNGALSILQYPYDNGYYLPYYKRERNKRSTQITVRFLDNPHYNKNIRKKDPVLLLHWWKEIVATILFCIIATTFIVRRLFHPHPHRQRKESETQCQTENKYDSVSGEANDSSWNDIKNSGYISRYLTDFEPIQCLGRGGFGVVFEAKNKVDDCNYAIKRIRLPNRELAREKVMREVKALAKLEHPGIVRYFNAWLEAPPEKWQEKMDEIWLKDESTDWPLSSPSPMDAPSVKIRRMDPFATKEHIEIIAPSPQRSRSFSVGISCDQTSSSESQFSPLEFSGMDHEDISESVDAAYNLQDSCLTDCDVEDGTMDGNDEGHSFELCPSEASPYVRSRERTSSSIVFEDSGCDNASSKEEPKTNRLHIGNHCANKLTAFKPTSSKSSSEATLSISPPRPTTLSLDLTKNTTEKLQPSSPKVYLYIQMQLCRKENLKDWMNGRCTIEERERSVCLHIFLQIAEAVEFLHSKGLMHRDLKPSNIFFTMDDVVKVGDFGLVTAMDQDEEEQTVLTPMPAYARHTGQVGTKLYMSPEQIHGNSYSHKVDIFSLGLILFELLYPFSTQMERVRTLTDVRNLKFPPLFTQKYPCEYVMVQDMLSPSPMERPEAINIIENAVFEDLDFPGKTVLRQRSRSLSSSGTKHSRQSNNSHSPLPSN
PROPERTY_MEASURED: IC50 (nM)

{"SMILES_NOTATION": "COc1cc2ncnc(Nc3ccc4c(c3)CCN4C(=O)Cc3csc4ccccc34)c2cc1OC", "SYSTEM_UNDER_TEST": "PERK (Homo sapiens, UniProt Q9NZJ5)", "UNIT_ABBREV": "nM", "TEST_VALUE": 501}
{"SMILES_NOTATION": "COc1cc2ncnc(Nc3ccc4c(c3F)CCN4C(=O)Cc3cc(F)ccc3F)c2cc1OC", "SYSTEM_UNDER_TEST": "PERK (Homo sapiens, UniProt Q9NZJ5)", "UNIT_ABBREV": "nM", "TEST_VALUE": 50.1}
{"SMILES_NOTATION": "COc1cc2ncnc(Nc3ccc4c(c3)CCN4C(=O)Cc3n[nH]c4ccc(F)cc34)c2cc1OC", "SYSTEM_UNDER_TEST": "PERK (Homo sapiens, UniProt Q9NZJ5)", "UNIT_ABBREV": "nM", "TEST_VALUE": 2000}
{"SMILES_NOTATION": "COCCOc1cc2ncnc(Nc3ccc4c(c3)CCN4C(=O)Cc3c(C)[nH]c4ccccc34)c2cc1OCCOC", "SYSTEM_UNDER_TEST": "PERK (Homo sapiens, UniProt Q9NZJ5)", "UNIT_ABBREV": "nM", "TEST_VALUE": 398}
